In this section we review reported Hsp70 generation values for a set of compounds.
test system: Hsp70; type: cell-based; details: Dose 3.0 uM

INSERT INTO results (compound, measured_on, outcome_measure, test_result) VALUES
  ('Cc1c(O)c(O)cc2c1CC=C1[C@@]2(C)CC[C@@]2(C)[C@@H]3C[C@](C)(C(=O)O)CC[C@]3(C)CC[C@]12C [dihydrocelastrol]', 'Hsp70', 'Hsp70 generation', '.117');

Determine from records and report Hsp70 generation for COC(=O)[C@]1(C)CC[C@]2(C)CC[C@]3(C)C4=CC=C5C(=CC(=O)C(O)=C5C)[C@]4(C)CC[C@@]3(C)[C@@H]2C1 [pristimerin, reference compound]
.035

Determine from records and report Hsp70 generation for CC1=C(O)C(=O)C=C2C1=CC=C1[C@@]2(C)CC[C@@]2(C)[C@@H]3C[C@](C)(C(=O)O)CC[C@]3(C)CC[C@]12C [celastrol, reference compound]
4.54

Determine from records and report Hsp70 generation for COC(=O)[C@]1(C)CC[C@]2(C)CC[C@]3(C)C4=CCc5c(cc(OC(C)=O)c(OC(C)=O)c5C)[C@]4(C)CC[C@@]3(C)[C@@H]2C1 [dihydropristimerin diacetate]
.049

The measurements presented in this section are drawn from patent US20040220267A1.
